Source: paper PMC9645528

Biological target: DicerO (oocyte isoform lacking HEL1) (Mus musculus, UniProt Q8R418-2 1-1678)
Sequence (Q8R418 other isoform, or with tags, fused parts or gaps): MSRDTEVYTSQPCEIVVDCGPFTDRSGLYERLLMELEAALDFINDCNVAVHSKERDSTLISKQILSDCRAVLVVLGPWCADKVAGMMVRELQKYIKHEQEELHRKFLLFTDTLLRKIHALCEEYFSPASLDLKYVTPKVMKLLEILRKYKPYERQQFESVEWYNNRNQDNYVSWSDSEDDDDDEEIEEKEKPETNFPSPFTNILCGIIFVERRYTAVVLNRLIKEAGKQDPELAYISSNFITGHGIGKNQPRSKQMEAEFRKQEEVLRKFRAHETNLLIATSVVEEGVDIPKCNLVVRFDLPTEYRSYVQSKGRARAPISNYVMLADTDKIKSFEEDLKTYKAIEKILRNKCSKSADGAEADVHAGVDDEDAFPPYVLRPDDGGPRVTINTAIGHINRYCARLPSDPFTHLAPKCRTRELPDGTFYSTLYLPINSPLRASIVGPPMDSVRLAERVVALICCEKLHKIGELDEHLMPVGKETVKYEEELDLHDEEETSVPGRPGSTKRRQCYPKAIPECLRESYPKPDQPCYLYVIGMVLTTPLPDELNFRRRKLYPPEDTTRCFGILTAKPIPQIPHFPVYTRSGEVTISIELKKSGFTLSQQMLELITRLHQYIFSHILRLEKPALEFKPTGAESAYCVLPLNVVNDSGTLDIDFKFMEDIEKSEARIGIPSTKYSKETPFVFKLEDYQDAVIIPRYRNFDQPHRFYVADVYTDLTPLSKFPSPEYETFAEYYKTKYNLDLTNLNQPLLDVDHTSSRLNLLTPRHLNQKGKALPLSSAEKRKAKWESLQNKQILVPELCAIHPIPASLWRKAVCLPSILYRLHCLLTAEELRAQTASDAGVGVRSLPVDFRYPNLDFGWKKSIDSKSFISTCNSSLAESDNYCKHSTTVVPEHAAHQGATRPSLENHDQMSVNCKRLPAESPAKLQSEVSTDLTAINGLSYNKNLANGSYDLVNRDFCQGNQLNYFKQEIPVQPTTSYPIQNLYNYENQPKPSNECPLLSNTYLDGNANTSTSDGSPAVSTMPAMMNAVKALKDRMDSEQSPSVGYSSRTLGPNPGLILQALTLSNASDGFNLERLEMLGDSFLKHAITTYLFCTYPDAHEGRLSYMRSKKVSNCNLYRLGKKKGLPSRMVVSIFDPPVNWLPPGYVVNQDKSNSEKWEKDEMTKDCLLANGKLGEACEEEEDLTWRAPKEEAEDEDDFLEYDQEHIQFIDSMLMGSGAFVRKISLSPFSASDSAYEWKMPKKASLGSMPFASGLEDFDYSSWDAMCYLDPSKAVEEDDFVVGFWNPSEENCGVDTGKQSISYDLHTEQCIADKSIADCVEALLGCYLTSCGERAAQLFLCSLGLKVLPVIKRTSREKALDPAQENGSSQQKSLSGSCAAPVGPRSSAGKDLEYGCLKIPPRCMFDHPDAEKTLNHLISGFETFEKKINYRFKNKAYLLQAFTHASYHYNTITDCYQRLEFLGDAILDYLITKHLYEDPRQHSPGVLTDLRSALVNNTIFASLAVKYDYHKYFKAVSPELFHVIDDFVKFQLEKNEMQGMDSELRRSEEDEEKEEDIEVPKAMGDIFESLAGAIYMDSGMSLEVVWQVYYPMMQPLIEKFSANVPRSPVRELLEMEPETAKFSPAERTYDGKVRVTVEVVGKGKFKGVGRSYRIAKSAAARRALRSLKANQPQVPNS
Assay: EMSA; EMSA conditions not in the material; protein storage/SEC buffer 50 mM Tris pH 8.0, 150 mM NaCl, 1 mM DTT, 2 mM MgCl2 (2 mM CaCl2 for WT Dicer structural work)
Details: protein: recombinant; tags: N-term TwinStrep-HA-TEV; C-term TEV-2xFLAG-8xHis; hairpin, 30 bp stem, GCAA tetraloop, 3' overhang UU
endpoint: Kd (nM)
Unit nM implied. Number only.

Enquiry: Return reported Kd; argument: 30bp stem-loop (structured_RNA) RNA: AGAGGAGAGGGACAAUCAUAAAGGCCACUCGCAAGAGUGGCCUUUAUGAUUGUCCCUCUCCUCUUU
Return: 79
